# System: A549
# Assay protocol: Antiproliferative activity against human A549 cells incubated for 72 hrs by MTT assay
# Format: functional, cell-based
# Condition: A549, 72 h
Here, each record is paired with measured pIC50 data.
Remember, pIC50 is on a log scale: it is -log10 of the molar concentration.

c1ccc(COc2ccccc2Nc2ncnc3cc4c(cc23)OCCOCCOCCOCCO4)cc1; 4.31
O=[N+]([O-])c1ccc(COc2ccc(Nc3ncnc4cc5c(cc34)OCCOCCO5)cc2)cc1; 5.06

Turning now to a further compound:
Name the reported pIC50 value associated with the compound O=[N+]([O-])c1ccc(COc2ccccc2Nc2ncnc3cc4c(cc23)OCCOCCOCCO4)cc1
4.52

---

# Test system: HepG2
# Assay protocol: Antiproliferative activity against human HepG2 cells incubated for 72 hrs by MTT assay
# Format: functional, cell-based
# Condition: HepG2, 72 h
Returns: string. Value is YES if measured IC50 is below 40 µM, and NO if it is greater than or equal to it.

As a guide, the following entries are already answered.
O=[N+]([O-])c1ccc(COc2ccc(Nc3ncnc4cc5c(cc34)OCCOCCO5)cc2)cc1; NO
c1ccc(COc2cccc(Nc3ncnc4cc5c(cc34)OCCOCCO5)c2)cc1; NO
c1ccc(COc2ccc(Nc3ncnc4cc5c(cc34)OCCOCCOCCOCCO5)cc2)cc1; YES
c1ccc(COc2ccccc2Nc2ncnc3cc4c(cc23)OCCOCCOCCOCCO4)cc1; YES
c1ccc(COc2ccccc2Nc2ncnc3cc4c(cc23)OCCOCCOCCO4)cc1; YES

Field: next compound
Dear colleague, could you confirm whether IC50 of c1ccc(COc2ccc(Nc3ncnc4cc5c(cc34)OCCOCCOCCO5)cc2)cc1 falls below 40 µM? Thanks.
NO

---

# Tested on: A549
# Assay protocol: Antiproliferative activity against human A549 cells incubated for 72 hrs by MTT assay
# Format: functional, cell-based
# Condition: A549, 72 h
pIC50: −log10 of the molar value.
Here, each record is paired with measured pIC50 data.

Use these answered entries as a reference point.
O=[N+]([O-])c1ccc(COc2ccc(Nc3ncnc4cc5c(cc34)OCCOCCOCCOCCO5)cc2)cc1; < 4.00
c1ccc(COc2cccc(Nc3ncnc4cc5c(cc34)OCCOCCOCCO5)c2)cc1; < 4.00

Name the reported pIC50 value associated with the molecule c1ccc(COc2ccccc2Nc2ncnc3cc4c(cc23)OCCOCCO4)cc1
< 4.00

---

Here, each record is paired with measured pIC50 data.
# Tested on: SH-SY5Y
# Assay protocol: Antiproliferative activity against human SH-SY5Y cells incubated for 72 hrs by MTT assay
# Assay type: functional, cell-based
Remember, pIC50 is on a log scale: it is -log10 of the molar concentration.

O=[N+]([O-])c1ccc(COc2cccc(Nc3ncnc4cc5c(cc34)OCCOCCOCCOCCO5)c2)cc1; 5.07
c1ccc(COc2ccc(Nc3ncnc4cc5c(cc34)OCCOCCOCCOCCO5)cc2)cc1; 5.28
FC(F)(F)c1ccc(COc2ccc(Nc3ncnc4cc5c(cc34)OCCOCCOCCOCCO5)cc2)cc1; 5.67

Turning now to a further molecule:
Name the reported pIC50 value associated with the molecule O=[N+]([O-])c1ccc(COc2ccccc2Nc2ncnc3cc4c(cc23)OCCOCCOCCO4)cc1
4.12
